Target: CDK6/cyclin D1 (Homo sapiens (Human))
Assay: Biochemical kinase inhibitory assay, CDK6/cyclin D1
Conditions: in the presence of 10 μM ATP
pIC50: −log10 of the molar value.
assay_endpoint: pIC50

Example results:
Exercise: Data request, read-out pIC50, for Cc1nc(Nc2ncc3cc(C)c4ncn(C(C)C)c4c3n2)ccc1N1CCNCC1
Solution: 8.00 to 8.70

Exercise: Data request, read-out pIC50, for c1cc(Nc2ncc3ccc4ncn(C5CCCC5)c4c3n2)ncc1N1CCOCC1
Solution: 8.00 to 8.70

Exercise: Data request, read-out pIC50, for CC(C)n1cnc2ccc3cnc(Nc4ccc(N5CCNCC5)cc4F)nc3c21
Solution: 7.30 to 8.00

Continuing:
Exercise: Data request, read-out pIC50, for Cc1cc2cnc(Nc3ccc(N4CCOCC4)cn3)nc2c2c1ncn2C(C)C
Solution: 8.00 to 8.70

Exercise: Data request, read-out pIC50, for CC(C)n1cnc2ccc3cnc(Nc4ccc(N5CCCNCC5)cn4)nc3c21
Solution: 7.30 to 8.00

Exercise: Data request, read-out pIC50, for CC(C)n1cnc2ccc3cnc(Nc4ccc(N5CCC6(CCNCC6)C5)cn4)nc3c21
Solution: 7.30 to 8.00

Exercise: Data request, read-out pIC50, for CCn1cnc2ccc3cnc(Nc4ccc(N5C[C@@H](C)O[C@@H](C)C5)cn4)nc3c21
Solution: 7.30 to 8.00

Exercise: Data request, read-out pIC50, for Cc1nc(Nc2ncc3ccc4ncn(C(C)C)c4c3n2)ccc1N1CCN(C)CC1
Solution: 8.00 to 8.70

Exercise: Data request, read-out pIC50, for Cc1nc(Nc2ncc3ccc4ncn(C5CCC5)c4c3n2)ccc1N1CCNCC1
Solution: 7.30 to 8.00

----------
Target: CDK4/cyclin D1 (Homo sapiens (Human))
Sequence (P11802 whole entry): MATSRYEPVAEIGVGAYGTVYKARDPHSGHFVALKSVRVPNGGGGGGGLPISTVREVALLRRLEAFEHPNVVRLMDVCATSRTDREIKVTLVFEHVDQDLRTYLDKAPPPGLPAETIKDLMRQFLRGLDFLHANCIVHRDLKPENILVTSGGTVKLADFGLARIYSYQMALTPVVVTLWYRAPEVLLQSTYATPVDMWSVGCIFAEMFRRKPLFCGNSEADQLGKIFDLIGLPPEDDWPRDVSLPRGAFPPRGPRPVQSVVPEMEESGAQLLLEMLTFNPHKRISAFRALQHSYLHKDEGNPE
Sequence (P24385 whole entry partner): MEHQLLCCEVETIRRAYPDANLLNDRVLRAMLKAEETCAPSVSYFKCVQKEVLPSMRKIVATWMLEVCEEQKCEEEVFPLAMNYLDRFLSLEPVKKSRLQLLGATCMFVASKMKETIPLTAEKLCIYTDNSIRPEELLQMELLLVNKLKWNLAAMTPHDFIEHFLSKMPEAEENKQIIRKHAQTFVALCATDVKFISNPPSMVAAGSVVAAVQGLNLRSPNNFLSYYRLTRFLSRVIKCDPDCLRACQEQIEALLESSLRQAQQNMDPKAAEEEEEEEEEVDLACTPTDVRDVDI
Test: Biochemical kinase inhibitory assay, CDK4/cyclin D1
Settings: recombinant CDK4/cyclin D1; in the presence of 10 μM ATP
Procedure: Potency determination in the biochemical kinase inhibitory assay. Kinase activity assay and IC50 determination. […] The kinase reaction was initiated by the addition of 1 μg (1.5 μM) of recombinant retinoblastoma protein, 5 μM ATP and 10μ Ci γ-32P-ATP. […] The corresponding phosphorylated substrate protein bands were quantified using a densitometer (Bio-Rad). […]
pIC50: −log10 of the molar value.
Reported pIC50 is given for each of the following compounds.

Exercise: Data request, read-out pIC50, for Cc1cc(Nc2ncc3c(C)cc4ncn(C(C)C)c4c3n2)ncc1N1CCNCC1 [Compound I-63]
Solution: 7.00 to 7.30

Exercise: Data request, read-out pIC50, for CC(C)n1cnc2ccc3cnc(Nc4ccc(N5CCN(CCO)CC5)cc4)nc3c21 [Compound I-34]
Solution: 7.30 to 8.00

Exercise: Data request, read-out pIC50, for CC(C)n1cnc2ccc3cnc(Nc4ccc(N5CCC(N)C5)cn4)nc3c21 (centres unmarked) [Compound I-22]
Solution: 7.30 to 8.00

Exercise: Data request, read-out pIC50, for Cc1nc(Nc2ncc3ccc4ncn(C5CCCC5)c4c3n2)ccc1N1CCNCC1 [Compound I-59]
Solution: 8.00 to 8.70

Exercise: Data request, read-out pIC50, for COc1ccc2cc(Nc3ncc4ccc5ncn(C(C)C)c5c4n3)ccc2n1 [Compound I-39]
Solution: 7.00 to 7.30

----------
Target: CDK6/cyclin D1 (Homo sapiens (Human), UniProt Q00534)
Sequence (Q00534 whole entry, one chain of several): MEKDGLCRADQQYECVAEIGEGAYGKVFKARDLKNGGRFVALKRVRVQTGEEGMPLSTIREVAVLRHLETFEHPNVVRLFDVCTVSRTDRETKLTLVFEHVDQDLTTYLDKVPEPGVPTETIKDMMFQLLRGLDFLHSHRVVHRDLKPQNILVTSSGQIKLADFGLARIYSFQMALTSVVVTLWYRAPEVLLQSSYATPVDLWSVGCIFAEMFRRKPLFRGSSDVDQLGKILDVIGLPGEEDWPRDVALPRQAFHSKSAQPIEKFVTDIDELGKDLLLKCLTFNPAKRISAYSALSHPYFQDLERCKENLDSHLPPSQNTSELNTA
Assay: Biochemical kinase inhibitory assay, CDK6/cyclin D1
Settings: in the presence of 10 μM ATP
Experimental: Potency determination in the biochemical kinase inhibitory assay. Kinase activity assay and IC50 determination. […] The kinase reaction was initiated by the addition of 1 μg (1.5 μM) of recombinant retinoblastoma protein, 5 μM ATP and 10μ Ci γ-32P-ATP. […] The corresponding phosphorylated substrate protein bands were quantified using a densitometer (Bio-Rad). […]
Reported IC50 is given for each of the following compounds.

Exercise: Data request, read-out IC50, for Cc1cc(Nc2ncc3ccc4ncn(C5CCCC5)c4c3n2)ncc1N1CCOCC1
Solution: 2 to 10 nM

Exercise: Data request, read-out IC50, for CC(C)n1cnc2ccc3cnc(Nc4ccc(N5CCN(CCO)CC5)cc4)nc3c21
Solution: 10 to 50 nM

Exercise: Data request, read-out IC50, for Cc1cc(Nc2ncc3ccc4ncn(C(C)C)c4c3n2)ncc1N1CCNCC1
Solution: < 2 nM

Exercise: Data request, read-out IC50, for c1cc(Nc2ncc3ccc4ncn(C5CCC5)c4c3n2)ncc1N1CCOCC1
Solution: 10 to 50 nM

Exercise: Data request, read-out IC50, for CCN1CCN(c2ccc(Nc3ncc4ccc5ncn(C(C)C)c5c4n3)nc2C)CC1
Solution: 2 to 10 nM

Exercise: Data request, read-out IC50, for Cc1cc(Nc2ncc3ccc4ncn(C5CCC5)c4c3n2)ncc1N1CCNCC1
Solution: 10 to 50 nM

Source of measurements: patent US12428423B2
